FYI, the data here is from ChEMBL document CHEMBL2163253.

Assay: Efflux ratio in human Caco2 cells at 5 uM at pH 7.4
Assay type: ADME, cell-based
Settings: Caco-2, pH 7.4
readout: efflux ratio at 5 µM
// keep it numeric: no unit symbol after the value

Prompt: Name the recorded efflux ratio at 5 µM for Nc1c(-c2ccc([C@H]3CC[C@H](CC(=O)O)CC3)cc2)cnc2ccnn12 .
Response: 1.1

###

Biological target: Diacylglycerol O-acyltransferase 1 (Homo sapiens, UniProt O75907)
Sequence (O75907 whole entry): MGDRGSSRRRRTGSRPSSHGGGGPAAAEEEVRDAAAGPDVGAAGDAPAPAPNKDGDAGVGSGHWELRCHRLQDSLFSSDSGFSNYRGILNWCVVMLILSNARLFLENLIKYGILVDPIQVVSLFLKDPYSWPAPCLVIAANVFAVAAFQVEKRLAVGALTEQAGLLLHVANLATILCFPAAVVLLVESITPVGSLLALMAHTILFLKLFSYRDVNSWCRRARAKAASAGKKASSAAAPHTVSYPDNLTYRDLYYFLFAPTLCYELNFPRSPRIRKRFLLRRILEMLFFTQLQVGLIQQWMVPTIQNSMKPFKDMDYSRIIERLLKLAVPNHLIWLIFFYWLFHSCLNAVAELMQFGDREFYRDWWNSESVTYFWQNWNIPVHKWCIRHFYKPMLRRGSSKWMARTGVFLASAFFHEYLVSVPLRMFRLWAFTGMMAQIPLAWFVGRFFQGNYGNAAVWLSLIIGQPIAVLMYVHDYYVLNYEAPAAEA
Experiment: Inhibition of human DGAT1 expressed in human HeLa cells assessed as reduction in triglyceride synthesis
Type: cell-based
readout: pIC50
The scale used: pIC50 is minus the common logarithm of the concentration in molar units.

Prompt: Name the recorded pIC50 for Nc1c(-c2ccc([C@H]3CC[C@H](CC(=O)O)CC3)cc2)cnc2ccnn12 .
Response: 7.11

###

Assay: Cmax in rat at 5 mg/kg, po administered as single dose
Assay type: ADME, organism-based
Design: dose 5 mg/kg, route oral
Conditions: in vivo
readout: Cmax (ng/mL)
Give just the number in ng/mL; leave the unit off.

Prompt: Name the recorded Cmax for Nc1c(-c2ccc([C@H]3CC[C@H](CC(=O)O)CC3)cc2)cnc2ccnn12 .
Response: 9300

###

Assay: Cmax in rat
Type: ADME, organism-based
Details: plasma
readout: Cmax (ng/mL)
Give just the number in ng/mL; leave the unit off.

Prompt: Name the recorded Cmax for Nc1c(-c2ccc([C@H]3CC[C@H](CC(=O)O)CC3)cc2)cnc2ccnn12 .
Response: 30200

###

Assay: Plasma concentration in CD1 mouse postprandial hyperlipidemia model at 0.3 mg/kg, po administered as single dose 1 hr before oral corn oil bolus challenge and measured after 2 hrs
Type: ADME, organism-based
Design: dose 0.3 mg/kg, route oral
readout: concentration at 2 h (ng/mL)
Give just the number in ng/mL; leave the unit off.

Prompt: Name the recorded concentration at 2 h for Nc1c(-c2ccc([C@H]3CC[C@H](CC(=O)O)CC3)cc2)cnc2ccnn12 .
Response: 360

###

Molecular target: Voltage-gated inwardly rectifying potassium channel KCNH2 (Homo sapiens, UniProt Q12809)
Sequence (Q12809 whole entry): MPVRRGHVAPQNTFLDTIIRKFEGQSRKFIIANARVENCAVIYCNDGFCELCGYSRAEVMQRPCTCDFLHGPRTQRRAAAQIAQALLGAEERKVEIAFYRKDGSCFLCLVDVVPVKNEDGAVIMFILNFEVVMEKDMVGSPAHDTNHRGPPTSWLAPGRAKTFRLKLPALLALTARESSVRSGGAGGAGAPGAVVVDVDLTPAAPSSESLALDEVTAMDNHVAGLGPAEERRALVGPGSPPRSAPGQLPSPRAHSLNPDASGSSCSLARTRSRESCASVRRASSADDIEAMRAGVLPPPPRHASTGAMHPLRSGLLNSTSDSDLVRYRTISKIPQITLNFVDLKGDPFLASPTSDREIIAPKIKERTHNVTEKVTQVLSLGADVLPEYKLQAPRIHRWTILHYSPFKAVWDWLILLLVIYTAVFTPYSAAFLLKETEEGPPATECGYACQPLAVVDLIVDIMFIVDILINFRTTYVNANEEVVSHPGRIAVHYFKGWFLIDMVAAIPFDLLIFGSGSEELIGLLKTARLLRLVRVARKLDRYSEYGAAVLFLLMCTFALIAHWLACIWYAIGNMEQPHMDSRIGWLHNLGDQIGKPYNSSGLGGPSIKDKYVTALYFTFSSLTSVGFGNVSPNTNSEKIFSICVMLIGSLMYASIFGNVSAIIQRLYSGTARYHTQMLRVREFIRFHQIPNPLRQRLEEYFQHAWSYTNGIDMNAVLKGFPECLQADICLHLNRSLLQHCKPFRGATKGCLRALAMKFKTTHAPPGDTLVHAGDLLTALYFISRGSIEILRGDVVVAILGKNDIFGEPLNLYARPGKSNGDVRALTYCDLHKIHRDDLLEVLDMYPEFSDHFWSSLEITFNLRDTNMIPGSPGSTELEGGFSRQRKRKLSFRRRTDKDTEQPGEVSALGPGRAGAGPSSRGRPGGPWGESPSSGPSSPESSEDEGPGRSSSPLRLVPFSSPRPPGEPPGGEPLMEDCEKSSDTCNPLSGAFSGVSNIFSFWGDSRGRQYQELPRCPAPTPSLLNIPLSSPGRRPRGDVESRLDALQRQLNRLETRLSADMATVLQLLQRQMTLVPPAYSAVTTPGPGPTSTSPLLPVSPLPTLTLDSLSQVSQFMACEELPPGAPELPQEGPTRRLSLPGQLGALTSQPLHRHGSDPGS
Assay: Inhibition of human ERG by manual patch clamp assay
pIC50: −log10 of the molar value.
readout: pIC50

Prompt: Name the recorded pIC50 for Nc1c(-c2ccc([C@H]3CC[C@H](CC(=O)O)CC3)cc2)cnc2ccnn12 .
Response: < 3.52

###

Experiment: Stability in human liver microsomes assessed as parent compound remaining measured after 60 mins
Type: ADME, Microsome
Conditions: read-out: Stability
readout: remaining at 1 h (%)
Give just the number in %; leave the unit off.

Prompt: Name the recorded remaining at 1 h for Nc1c(-c2ccc(C(=O)O)cc2)cnc2ccnn12 .
Response: 100

Prompt: Also need CC(C)(C)c1ccc(-c2cnc3ccnn3c2N)cc1 , thanks.
Response: 16

Prompt: Also need CS(=O)(=O)c1ccc(-c2cnc3ccnn3c2N)cc1 , thanks.
Response: 91

Prompt: Also need Nc1c(-c2ccccc2Br)cnc2ccnn12 , thanks.
Response: 69

Prompt: Also need Nc1c(-c2ccc([C@H]3CC[C@H](CC(=O)O)CC3)cc2)cnc2ccnn12 , thanks.
Response: 97

Prompt: Also need CC(C)(C)c1ccc(-c2cncnc2N)cc1 , thanks.
Response: 73

###

Assay: Oral bioavailability in rat at 5 mg/kg administered as single dose
Assay type: ADME, organism-based
Settings: in vivo
readout: bioavailability
Write the quantity with the unit trailing the number.

Prompt: Name the recorded bioavailability for Nc1c(-c2ccc([C@H]3CC[C@H](CC(=O)O)CC3)cc2)cnc2ccnn12 .
Response: 91%

###

Molecular target: Diacylglycerol O-acyltransferase 2 (Homo sapiens, UniProt Q96PD7)
Sequence (Q96PD7 whole entry): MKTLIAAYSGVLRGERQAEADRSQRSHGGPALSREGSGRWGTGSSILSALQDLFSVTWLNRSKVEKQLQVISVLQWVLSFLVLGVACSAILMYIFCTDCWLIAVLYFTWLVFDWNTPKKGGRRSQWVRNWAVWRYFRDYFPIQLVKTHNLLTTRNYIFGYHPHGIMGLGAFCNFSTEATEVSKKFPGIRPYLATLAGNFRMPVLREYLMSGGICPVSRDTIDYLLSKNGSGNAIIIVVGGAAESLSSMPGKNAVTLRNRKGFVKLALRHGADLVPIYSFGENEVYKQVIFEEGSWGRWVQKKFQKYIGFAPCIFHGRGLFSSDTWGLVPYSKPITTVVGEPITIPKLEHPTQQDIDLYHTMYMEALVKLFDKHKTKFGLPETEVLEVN
Assay: Inhibition of human recombinant DGAT2 expressed in insect cell membrane using [1-14C]decanoyl-CoA substrate by phospholipid flash plate assay
readout: IC50

Prompt: Name the recorded IC50 for Nc1c(-c2ccc([C@H]3CC[C@H](CC(=O)O)CC3)cc2)cnc2ccnn12 .
Response: > 10 µM

###

Assay: Stability in human liver microsomes assessed as parent compound remaining measured after 60 mins
Format: ADME, Microsome
Settings: read-out: Stability
I'd be grateful if you could share measured remaining at 1 h for these entries.

Prompt: Name the recorded remaining at 1 h for Nc1c(-c2cccc(Br)c2)cnc2ccnn12 .
Response: < 5%

Prompt: Also need Nc1c(-c2ccc(Br)cc2)cnc2ccnn12 , thanks.
Response: < 5%

Prompt: Also need CC(C)c1ccc(-c2cnc3ccnn3c2N)cc1 , thanks.
Response: < 5%
